test system: L1210 cells; assay: Dark cytotoxicity in L1210 cells (plates wrapped in aluminum foil); assay type: cell-based; conditions: L1210 cells, absence of light
Just a reminder that ties go to Condition not met: only LD20dark strictly below 2000 ng/mL counts as Condition met.

Example results:
molecule	assigned_label
Cc1ccc(-c2c3nc(c(-c4ccc(C)cc4)c4ccc([nH]4)c(-c4ccc(C)cc4)c4nc(c(-c5ccc(C)cc5)c5ccc2[nH]5)C(O)C4O)C=C3)cc1 (stereo not drawn) [Compound 21, T(p-CH3)PC(OH)2]	Condition not met
OC1c2nc(c(-c3cccc(Br)c3)c3ccc([nH]3)c(-c3cccc(Br)c3)c3nc(c(-c4cccc(Br)c4)c4ccc([nH]4)c2-c2cccc(Br)c2)C=C3)C1O (stereo not drawn) [Compound 6, T(m-Br)PC(OH)2]	Condition met
OC1c2nc(c(-c3cccc(F)c3)c3ccc([nH]3)c(-c3cccc(F)c3)c3nc(c(-c4cccc(F)c4)c4ccc([nH]4)c2-c2cccc(F)c2)C=C3)C1O (stereo not drawn) [Compound 7, T(m-F)PC(OH)2]	Condition met
COC(=O)c1ccc(-c2c3nc(c(-c4ccc(C(=O)OC)cc4)c4ccc([nH]4)c(-c4ccc(C(=O)OC)cc4)c4nc(c(-c5ccc(C(=O)OC)cc5)c5ccc2[nH]5)C(O)C4O)C=C3)cc1 (stereo not drawn) [Compound 12, T(p-CO2Me)PC(OH)2]	Condition not met
O=S(=O)(O)c1ccc(-c2c3nc(c(-c4ccc(S(=O)(=O)O)cc4)c4ccc([nH]4)c(-c4ccc(S(=O)(=O)O)cc4)c4nc(c(-c5ccc(S(=O)(=O)O)cc5)c5ccc2[nH]5)C(O)C4O)C=C3)cc1 (stereo not drawn) [Compound 23, T(p-SO3H)PC(OH)2]	Condition not met
COc1cc(OC)c(-c2c3nc(c(-c4c(OC)cc(OC)cc4OC)c4ccc([nH]4)c(-c4c(OC)cc(OC)cc4OC)c4nc(c(-c5c(OC)cc(OC)cc5OC)c5ccc2[nH]5)C(O)C4O)C(O)C3O)c(OC)c1 (stereo not drawn) [Compound 30, T(o,p,o′-OCH3)PB(OH)4]	Condition met

Please examine the following record next.
## Task Hello, is LD20dark of the following molecule strictly smaller than 2000 ng/mL? OC1c2nc(c(-c3ccccc3)c3ccc([nH]3)c(-c3ccccc3)c3nc(c(-c4ccccc4)c4ccc([nH]4)c2-c2ccccc2)C=C3)C1O (stereo not drawn) [Compound 3, H2TPC(OH)2]
## Result Condition not met

---

test system: L1210 cells; test: Phototoxicity in L1210 cells, MTT viability assay; type: cell-based; conditions: phototoxicity, L1210 cells; Table 4
endpoint: LD50 (ng/mL)
Numbers only, in ng/mL.

These solved cases illustrate the format of a correct answer.
molecule	system_tested	endpoint	measured_result
OC1c2nc(c(-c3c(F)c(F)c(F)c(F)c3F)c3ccc([nH]3)c(-c3c(F)c(F)c(F)c(F)c3F)c3nc(c(-c4c(F)c(F)c(F)c(F)c4F)c4ccc([nH]4)c2-c2c(F)c(F)c(F)c(F)c2F)C=C3)C1O (stereo not drawn) [Compound 9, TF5PC(OH)2]	L1210 cells	LD50	100
OC1c2cc3ccc([nH]3)c(-c3ccccc3)c3nc(cc4ccc([nH]4)c(-c4ccccc4)c(n2)C1O)C=C3 (stereo not drawn) [Compound 25, diphenyl-2,3-dihydroxychlorin]	L1210 cells	LD50	1.2

Turning to the following molecule.
## Task # returns recorded LD50 (system: L1210 cells) for O=[N+]([O-])c1cccc(-c2c3nc(c(-c4cccc([N+](=O)[O-])c4)c4ccc([nH]4)c(-c4cccc([N+](=O)[O-])c4)c4nc(c(-c5cccc([N+](=O)[O-])c5)c5ccc2[nH]5)C(O)C4O)C=C3)c1 (stereo not drawn) [Compound 4, T(m-NO2)PC(OH)2]
## Result 4500

---

Please provide measured log10(LD50) for the entries that follow.
system: L1210 cells; experiment: Phototoxicity in L1210 cells, MTT viability assay; format: cell-based; conditions: phototoxicity, L1210 cells; Table 4
Hi team, quick reminder: these entries are log10 of LD50 (ng/mL).

compound	measured_result
COc1cc(OC)cc(-c2c3nc(c(-c4cc(OC)cc(OC)c4)c4ccc([nH]4)c(-c4cc(OC)cc(OC)c4)c4nc(c(-c5cc(OC)cc(OC)c5)c5ccc2[nH]5)C(O)C4O)C=C3)c1 (stereo not drawn) [Compound 16, T(m,m′-OCH3)PC(OH)2]	3.30
O=S(=O)(O)c1ccc(-c2c3nc(c(-c4ccc(S(=O)(=O)O)cc4)c4ccc([nH]4)c(-c4ccc(S(=O)(=O)O)cc4)c4nc(c(-c5ccc(S(=O)(=O)O)cc5)c5ccc2[nH]5)C(O)C4O)C=C3)cc1 (stereo not drawn) [Compound 23, T(p-SO3H)PC(OH)2]	3.00
Cc1cc(C)c(-c2c3nc(c(-c4c(C)cc(C)cc4C)c4ccc([nH]4)c(-c4c(C)cc(C)cc4C)c4nc(c(-c5c(C)cc(C)cc5C)c5ccc2[nH]5)C(O)C4O)C=C3)c(C)c1 (stereo not drawn) [Compound 22, T(o,p,o′-CH3)PC(OH)2]	4.00
COc1cc(OC)c(-c2c3nc(c(-c4c(OC)cc(OC)cc4OC)c4ccc([nH]4)c(-c4c(OC)cc(OC)cc4OC)c4nc(c(-c5c(OC)cc(OC)cc5OC)c5ccc2[nH]5)C(O)C4O)C(O)C3O)c(OC)c1 (stereo not drawn) [Compound 30, T(o,p,o′-OCH3)PB(OH)4]	1.26
O=[N+]([O-])c1ccc(-c2c3nc(c(-c4ccccc4)c4ccc([nH]4)c(-c4ccccc4)c4nc(c(-c5ccccc5)c5ccc2[nH]5)C=C4)C(O)C3O)cc1 (stereo not drawn) [Compound 28]	3.30
Oc1ccc(-c2c3nc(c(-c4ccccc4)c4ccc([nH]4)c(-c4ccccc4)c4nc(c(-c5ccccc5)c5ccc2[nH]5)C=C4)C(O)C3O)cc1 (stereo not drawn) [Compound 27]	1.15

Please state log10(LD50) for every compound in the list that follows.
1. OC1c2nc(c(-c3ccc(Br)cc3)c3ccc([nH]3)c(-c3ccc(Br)cc3)c3nc(c(-c4ccc(Br)cc4)c4ccc([nH]4)c2-c2ccc(Br)cc2)C=C3)C1O (stereo not drawn) [Compound 5, T(p-Br)PC(OH)2]
2. Cc1ccc(-c2c3nc(c(-c4ccc(C)cc4)c4ccc([nH]4)c(-c4ccc(C)cc4)c4nc(c(-c5ccc(C)cc5)c5ccc2[nH]5)C(O)C4O)C=C3)cc1 (stereo not drawn) [Compound 21, T(p-CH3)PC(OH)2]
3. COC(=O)c1ccc(-c2c3nc(c(-c4ccc(C(=O)OC)cc4)c4ccc([nH]4)c(-c4ccc(C(=O)OC)cc4)c4nc(c(-c5ccc(C(=O)OC)cc5)c5ccc2[nH]5)C(O)C4O)C=C3)cc1 (stereo not drawn) [Compound 12, T(p-CO2Me)PC(OH)2]

## Result
3.78
3.85
2.08

---

system: L1210 cells; assay: Dark cytotoxicity in L1210 cells (plates wrapped in aluminum foil); format: cell-based; settings: L1210 cells, absence of light
Assignment: determine reported LD20dark for the given compounds.
Answers are plain numbers, in ng/mL.

Please review the following examples before continuing.
compound	measured_result
O=[N+]([O-])c1cccc(-c2c3nc(c(-c4cccc([N+](=O)[O-])c4)c4ccc([nH]4)c(-c4cccc([N+](=O)[O-])c4)c4nc(c(-c5cccc([N+](=O)[O-])c5)c5ccc2[nH]5)C(O)C4O)C=C3)c1 (stereo not shown)	4500
OC1c2nc(c(-c3c(F)c(F)c(F)c(F)c3F)c3ccc([nH]3)c(-c3c(F)c(F)c(F)c(F)c3F)c3nc(c(-c4c(F)c(F)c(F)c(F)c4F)c4ccc([nH]4)c2-c2c(F)c(F)c(F)c(F)c2F)C=C3)C1O (stereo not shown)	5000

Report LD20dark for every entry below.
1. OC1c2nc(c(-c3ccc(Br)cc3)c3ccc([nH]3)c(-c3ccc(Br)cc3)c3nc(c(-c4ccc(Br)cc4)c4ccc([nH]4)c2-c2ccc(Br)cc2)C=C3)C1O (stereo not shown)
2. OC1c2cc3ccc([nH]3)c(-c3ccccc3)c3nc(cc4ccc([nH]4)c(-c4ccccc4)c(n2)C1O)C=C3 (stereo not shown) [Compound 25, diphenyl-2,3-dihydroxychlorin]

## Result
1. 1900
2. 1500

---

Consider the following compounds; for each one, report its LD50.
tested on: L1210 cells; test: Phototoxicity in L1210 cells, MTT viability assay; format: cell-based; settings: phototoxicity, L1210 cells; Table 4

Please review the following examples before continuing.
compound	LD50
CC(C)(C)c1ccc(-c2c3nc(c(-c4ccc(C(C)(C)C)cc4)c4ccc([nH]4)c(-c4ccc(C(C)(C)C)cc4)c4nc(c(-c5ccc(C(C)(C)C)cc5)c5ccc2[nH]5)C(O)C4O)C=C3)cc1 (centres unmarked) [Compound 24, T(p-t-Bu)PC(OH)2]	6000 ng/mL
COc1cc(-c2c3nc(c(-c4ccc(O)c(OC)c4)c4ccc([nH]4)c(-c4ccc(O)c(OC)c4)c4nc(c(-c5ccc(O)c(OC)c5)c5ccc2[nH]5)C(O)C4O)C=C3)ccc1O (centres unmarked) [Compound 17, T(m-OCH3,p-OH)PC(OH)2]	30 ng/mL
Oc1cccc(-c2c3nc(c(-c4cccc(O)c4)c4ccc([nH]4)c(-c4cccc(O)c4)c4nc(c(-c5cccc(O)c5)c5ccc2[nH]5)C(O)C4O)C=C3)c1 (centres unmarked) [Compound 11, T(m-OH)PC(OH)2]	15 ng/mL
OC1c2nc(c(-c3ccccc3F)c3ccc([nH]3)c(-c3ccccc3F)c3nc(c(-c4ccccc4F)c4ccc([nH]4)c2-c2ccccc2F)C=C3)C1O (centres unmarked) [Compound 8, T(o-F)PC(OH)2]	3000 ng/mL

Turning to the following compound.
## Task Fill blank: measured LD50 of the compound OC1c2nc(c(-c3ccccc3)c3ccc([nH]3)c(-c3ccccc3)c3nc(c(-c4ccccc4)c4ccc([nH]4)c2-c2ccccc2)C=C3)C1O (centres unmarked) [Compound 3, H2TPC(OH)2] is ____.
## Result 1800 ng/mL
